target: SARS-CoV-2 S1 (antigen of the Carterra SPR kinetics) (SARS-CoV-2, UniProt P0DTC2 16-685); test: Carterra SPR
Each entry below lists one item and its recorded kon value.
REPORTED_PROPERTY: kon (M⁻¹ s⁻¹)

1-4 (antibody, V domains shown, also called variant 1-4) VH: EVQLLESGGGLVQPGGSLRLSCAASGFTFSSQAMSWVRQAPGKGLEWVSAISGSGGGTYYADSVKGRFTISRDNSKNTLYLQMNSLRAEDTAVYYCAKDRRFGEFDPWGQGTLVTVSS VL: QSALTQPASVSGSPGQSITISCTGTSSDVGTYNLVSWYQQHPGKAPKLMIYEGSQRPSGVSNRFSGSKSGNTASLTISGLQAEDEADYYCCSYAGSSSFVVFGGGTKLTVL | 42000
1-27 (antibody, V domains shown, also called variant 1-27) VH: EVQLLESGGGLVQPGGSLRLSCAASGFTFSSYAMTWVRQAPGKGLEWVSAISGSGGGTYYADSVKGRFTISRDNSKNTLYLQMNSLRAEDTAVYYCASSSSWQFDYWGQGTLVTVSS VL: QSALTQPASVSGSPGQSITISCTGTSSYVGHYNLVSWYQQHPGKAPKLMIYEGSRRPSGVSNRFSGSKSGNTASLTISGLQAEDEADYYCCSYAGSYTHYVFGGGTKLTVL | 227000
1-28 (antibody, V domains shown, also called variant 1-28) VH: EVQLLESGGGLVQPGGSLRLSCAASGFTFSSYGMSWVRQAPGKGLEWVSAISGSGGGTYYADSVKGRFTISRDNSKNTLYLQMNSLRAEDTAVYYCASSSSWQFDYWGQGTLVTVSS VL: QSALTQPASVSGSPGQSITISCTGTSSGVGSYNLVSWYQQHPGKAPKLMIYEGSQRPSGVSNRFSGSKSGNTASLTISGLQAEDEADYYCCSYAGSSTHYVFGGGTKLTVL | 1.23e+08
